Molecular target: dTDP-4-dehydrorhamnose reductase (Mycobacterium tuberculosis) (UniProt P9WH09)
Sequence (P9WH09 whole entry): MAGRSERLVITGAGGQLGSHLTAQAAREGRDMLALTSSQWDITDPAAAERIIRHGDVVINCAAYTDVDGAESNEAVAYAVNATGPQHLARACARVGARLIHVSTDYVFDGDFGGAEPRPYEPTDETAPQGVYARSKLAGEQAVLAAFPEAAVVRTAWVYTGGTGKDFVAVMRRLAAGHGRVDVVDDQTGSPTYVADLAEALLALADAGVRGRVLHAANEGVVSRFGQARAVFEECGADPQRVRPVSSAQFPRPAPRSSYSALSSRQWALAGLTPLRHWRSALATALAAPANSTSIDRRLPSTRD
Assay: Inhibition of Mycobacterium tuberculosis RmlD assessed as inhibition of dTDP-beta-6-deoxy-L-lyxo-4-hexulose to dTDP-beta-L-rhamnose conversion at 10 ug/ml
Activity calls are given as the source filed them. The calls are words filed in the database; no cut-off is given here.
observation type: inhibition

INSERT INTO measurements (item_smiles, tgt, reported_result) VALUES
  ('Oc1ccc(C(O)(c2ccccc2)c2ccc(O)c3ccccc23)c2ccccc12', 'dTDP-4-dehydrorhamnose reductase (Mycobacterium tuberculosis) (UniProt P9WH09)', 'inactive'),
  ('COc1cccc2c1[C@H](CO)N1[C@H](C#N)[C@@H]3C[C@H](C(=O)O)[C@@H]([C@@H]1C2)N3C', 'dTDP-4-dehydrorhamnose reductase (Mycobacterium tuberculosis) (UniProt P9WH09)', 'inactive'),
  ('COc1cc(C(=O)C(=O)c2cc(OC)c(O)c(OC)c2)cc(OC)c1O', 'dTDP-4-dehydrorhamnose reductase (Mycobacterium tuberculosis) (UniProt P9WH09)', 'inactive'),
  ('COc1cc(/N=N/c2c(O)nc3ccccc3c2O)c(OC)cc1/N=N/c1ccccc1', 'dTDP-4-dehydrorhamnose reductase (Mycobacterium tuberculosis) (UniProt P9WH09)', 'inactive'),
  ('Cc1cc(=O)oc2cc(O)c(O)cc12', 'dTDP-4-dehydrorhamnose reductase (Mycobacterium tuberculosis) (UniProt P9WH09)', 'inactive');
